experimental protocol: in vivo
measurement parameters: mouse, ip, single abdominal administration, ddy mice, 14 days, Behrens-Korber's method
Reported LD50 at 336 h values for a set of compounds
observed property: LD50 at 336 h (mg/kg)

                                    compound  qualifier_symbol  test_result
 0  CO[C@@]12[C@H](COC(N)=O)c3c(O)c(N=NC(=O)c4ccccc4)c(C)c(O)c3N1C[C@H]1[C@@H]2N1C (stereo partly drawn)                 >          100
 1  COc1c(C)c(N=O)c(O)c2c1N1C[C@H]3[C@H](N3C)[C@]1(O)[C@H]2COC(N)=O (stereo partly drawn)                 >          100
 2  CO[C@@]12[C@H](COC(N)=O)c3c(O)c(N=O)c(C)c(OS(=O)(=O)c4ccc(C)cc4)c3N1C[C@@H]1N[C@@H]12                 =           56
 3  CO[C@@]12[C@H](COC(N)=O)c3c(O)c(N=O)c(C)c(O)c3N1C[C@@H]1N[C@@H]12                 =           53
 4  CO[C@@]12[C@H](COC(N)=O)c3c(O)c(N=NC4=NCCN4)c(C)c(O)c3N1C[C@@H]1N[C@@H]12                 >          100
 5  CO[C@@]12[C@H](COC(N)=O)c3c(O)c(N=O)c(C)c(OC(C)=O)c3N1C[C@H]1[C@@H]2N1C(C)=O                 =           38
 6  COc1c(N=O)c(C)c(OC)c2c1[C@@H](COC(N)=O)[C@@]1(OC)[C@H]3N[C@H]3CN21                 =          100
 7  CO[C@@]12[C@H](COC(N)=O)c3c(O)c(N=O)c(C)c(OCC(C)C)c3N1C[C@@H]1N[C@@H]12                 >          100
 8  COC(=O)N=Nc1c(C)c(O)c2c(c1O)[C@@H](COC(N)=O)[C@@]1(OC)[C@H]3N[C@H]3CN21                 >          100
 9  CO[C@@]12[C@H](CO)c3c(O)c(N=O)c(C)c(O)c3N1C[C@@H]1N[C@@H]12                 =          100
10  CO[C@@]12[C@H](COC(N)=O)c3c(O)c(N=NC(=S)SC)c(C)c(O)c3N1C[C@@H]1N[C@@H]12                 =           50
11  COc1c(C)c(N=O)c(O)c2c1N1C[C@@H]3N[C@@H]3[C@]1(OC)[C@@H]2COC(N)=O                 =           75

----------
System: Sarcoma 180 solid tumour
Type: in vivo, ddy mouse
measurement parameters: C.I.=(LD50)/(ED50), ED50 = dose at T/C=0.5, i.v. (tail vein), 7 days
observed property: C.I. (chemotherapeutic index)

>>> df
                                   compound  qualifier_symbol  test_result
0  COc1c(C)c(N=O)c(O)c2c1N1C[C@H]3[C@H](N3C)[C@]1(O)[C@H]2COC(N)=O (stereo partly drawn)                 >         0.56
1  CO[C@@]12[C@H](COC(N)=O)c3c(O)c(N=O)c(C)c(OS(=O)(=O)c4ccc(C)cc4)c3N1C[C@@H]1N[C@@H]12                 =          2.6
2  COc1c(C)c(N=O)c(O)c2c1N1C[C@@H]3N[C@@H]3[C@]1(OC)[C@@H]2COC(N)=O                 =          5.6

----------
# C.I. (chemotherapeutic index) values compiled below
Tested on: Sarcoma 180 solid tumour
Format: in vivo, ddy mouse
measurement parameters: C.I.=(LD50)/(ED50), ED50 = dose at T/C=0.5, i.v. (tail vein), 7 days
observed property: C.I. (chemotherapeutic index)

In [3]: df
Out[3]:
                                   compound  qualifier_symbol  test_result
0  COc1c(N=O)c(C)c(OC)c2c1[C@@H](COC(N)=O)[C@@]1(OC)[C@H]3N[C@H]3CN21                 =          2.1
1  CO[C@@]12[C@H](COC(N)=O)c3c(O)c(N=O)c(C)c(O)c3N1C[C@@H]1N[C@@H]12                 =          2.0
2  CO[C@@]12[C@H](COC(N)=O)c3c(O)c(N=O)c(C)c(OCC(C)C)c3N1C[C@@H]1N[C@@H]12                 >         0.74
3  CO[C@@]12[C@H](CO)c3c(O)c(N=O)c(C)c(O)c3N1C[C@@H]1N[C@@H]12                 =          2.8

----------
experimental protocol: in vivo
Set-up: species or system mice (ddy strain)
measurement parameters: mouse, ip, ratio of dose reducing peripheral leucocytes to 4000 (per mm^3; i.p., 4 days) to ED50 (Sarcoma 180), read-out: (WBC4000)/(ED50)
observed property: selectivity ratio

>>> df
                                    compound  observed_property  qualifier_symbol  test_result
 0  CO[C@@]12[C@H](COC(N)=O)c3c(O)c(N=NC(=S)SC)c(C)c(O)c3N1C[C@@H]1N[C@@H]12 [Example 31]  selectivity ratio                 =          1.1
 1  COc1c(N=O)c(C)c(OC)c2c1[C@@H](COC(N)=O)[C@@]1(OC)[C@H]3N[C@H]3CN21 [Example 8]  selectivity ratio                 =          1.1
 2  CO[C@@]12[C@H](COC(N)=O)c3c(O)c(N=O)c(C)c(OCC(C)C)c3N1C[C@@H]1N[C@@H]12 [Example 13]  selectivity ratio                 >         0.74
 3  CO[C@@]12[C@H](COC(N)=O)c3c(O)c(N=O)c(C)c(OC(C)=O)c3N1C[C@H]1[C@@H]2N1C(C)=O [Example 11]  selectivity ratio                 =          0.9
 4  CO[C@@]12[C@H](COC(N)=O)c3c(O)c(N=O)c(C)c(O)c3N1C[C@@H]1N[C@@H]12 [Example 1]  selectivity ratio                 =          0.7
 5  CO[C@@]12[C@H](CO)c3c(O)c(N=O)c(C)c(O)c3N1C[C@@H]1N[C@@H]12 [Example 4]  selectivity ratio                 >          1.4
 6  COc1c(C)c(N=O)c(O)c2c1N1C[C@@H]3N[C@@H]3[C@]1(OC)[C@@H]2COC(N)=O [Example 6]  selectivity ratio                 =          2.7
 7  CO[C@@]12[C@H](COC(N)=O)c3c(O)c(N=NC4=NCCN4)c(C)c(O)c3N1C[C@@H]1N[C@@H]12 [Example 23]  selectivity ratio                 =          0.5
 8  CO[C@@]12[C@H](COC(N)=O)c3c(O)c(N=O)c(C)c(OS(=O)(=O)c4ccc(C)cc4)c3N1C[C@@H]1N[C@@H]12 [Example 15]  selectivity ratio                 =          3.9
 9  COc1c(C)c(N=O)c(O)c2c1N1C[C@H]3[C@H](N3C)[C@]1(O)[C@H]2COC(N)=O (some centres unmarked) [Example 10]  selectivity ratio                 >         0.56
10  CO[C@@]12[C@H](COC(N)=O)c3c(O)c(N=NC(=O)c4ccccc4)c(C)c(O)c3N1C[C@H]1[C@@H]2N1C (some centres unmarked) [Example 21]  selectivity ratio                 =         0.62

----------
Test system: Sarcoma 180 solid tumour
Type: in vivo, ddy mouse
measurement parameters: C.I.=(LD50)/(ED50), ED50 = dose at T/C=0.5, i.v. (tail vein), 7 days
C.I. (chemotherapeutic index) values for the molecules below.
observed property: C.I. (chemotherapeutic index)

>>> df
                                   molecule  qualifier_symbol  test_result
0  CO[C@@]12[C@H](COC(N)=O)c3c(O)c(N=NC(=O)c4ccccc4)c(C)c(O)c3N1C[C@H]1[C@@H]2N1C (stereo partly shown)                 >          1.0
1  CO[C@@]12[C@H](COC(N)=O)c3c(O)c(N=NC4=NCCN4)c(C)c(O)c3N1C[C@@H]1N[C@@H]12                 >          0.6
2  CO[C@@]12[C@H](COC(N)=O)c3c(O)c(N=O)c(C)c(OC(C)=O)c3N1C[C@H]1[C@@H]2N1C(C)=O                 =          2.0
3  CO[C@@]12[C@H](COC(N)=O)c3c(O)c(N=NC(=S)SC)c(C)c(O)c3N1C[C@@H]1N[C@@H]12                 =          2.5
